experiment: PZQ-ketoconazole DDI pharmacokinetic study in healthy volunteers; assay type: in vivo, human; settings: male, human, plasma, oral, 20 mg/kg, 20 mg/kg PZQ plus 200 mg ketoconazole, n = 9; read-out: Half life, treatment mean (SD) (converted)
half-life by entry:
Entry rule: numbers only, all in h.

• O=C(C1CCCCC1)N1CC(=O)N2CCc3ccccc3[C@@H]2C1 = 6

We now examine a further molecule.
For record O=C(C1CCCCC1)N1CC(=O)N2CCc3ccccc3[C@H]2C1 the listed half-life is 3.63

====

The entries below are paired with their reported Tmax.
Assay: PZQ-ketoconazole DDI pharmacokinetic study in healthy volunteers
Assay type: in vivo, human
Details: male, human, plasma, oral, 20 mg/kg, 20 mg/kg PZQ plus 200 mg ketoconazole, n = 9; read-out: T max, treatment mean (SD)
Method: Plasma samples were obtained from the AiBST biobank. […] Each participant served as their own control. […] The AUC extrapolated to infinite time was calculated as AUC∞ = AUCt + Ct/K el where Ct is the concentration of the last sample taken and K el is the terminal elimination rate constant. The terminal elimination rate constant K el was determined by least squares regression analysis in the terminal phase of the semi log concentration-time curve. […]
Your answer is read as h, so omit the unit and give the number.

• O=C(C1CCCCC1)N1CC(=O)N2CCc3ccccc3[C@H]2C1 = 2.44

Reported Tmax of O=C(C1CCCCC1)N1CC(=O)N2CCc3ccccc3[C@@H]2C1 : 1.61

====

assay: PZQ-ketoconazole DDI pharmacokinetic study in healthy volunteers; assay type: in vivo, human; details: male, human, plasma, oral, 20 mg/kg, 20 mg/kg PZQ plus 200 mg ketoconazole, n = 9; read-out: T max, treatment geo mean
Recorded Endpoint: Tmax (h)
Kindly provide the numeric value in h only, without the unit symbol.

* O=C(C1CCCCC1)N1CC(=O)N2CCc3ccccc3[C@H]2C1 | 2.35

API: the following record is the query input.
get_value(item= O=C(C1CCCCC1)N1CC(=O)N2CCc3ccccc3[C@@H]2C1 , readout=Tmax) returns 1.53

====

assay: PZQ-ketoconazole DDI pharmacokinetic study in healthy volunteers; assay type: in vivo, human; conditions: male, human, plasma, po, 20 mg/kg, single oral 20 mg/kg PZQ alone, n = 9; read-out: AUCt0‐tlast, reference geo mean
Quick reference: AUC of the listed items.
The answer should read as a number with its unit following.

• O=C(C1CCCCC1)N1CC(=O)N2CCc3ccccc3[C@H]2C1 = 2970 ng·h/mL

Please look at the following compound next.
AUC reading for O=C(C1CCCCC1)N1CC(=O)N2CCc3ccccc3[C@@H]2C1 : 1120 ng·h/mL

====

Overview of reported AUC(0-inf) across a group of compounds:
test: PZQ-ketoconazole DDI pharmacokinetic study in healthy volunteers; type: in vivo, human; conditions: male, human, plasma, po, 20 mg/kg, single oral 20 mg/kg PZQ alone, n = 9; read-out: AUCinf, reference geo mean
Param answer (str): number followed by unit.

• O=C(C1CCCCC1)N1CC(=O)N2CCc3ccccc3[C@@H]2C1 [R‐PZQ, R‐Praziquantel] = 1300 ng·h/mL

In the following, a different compound is considered.
Noted for O=C(C1CCCCC1)N1CC(=O)N2CCc3ccccc3[C@H]2C1 [S‐PZQ, S‐Praziquantel] : its AUC(0-inf) reads 3610 ng·h/mL
